- system: Polyketide synthase Pks13 (Mycobacterium tuberculosis (strain ATCC 25618 / H37Rv)) (UniProt I6X8D2)
- Sequence (I6X8D2 whole entry): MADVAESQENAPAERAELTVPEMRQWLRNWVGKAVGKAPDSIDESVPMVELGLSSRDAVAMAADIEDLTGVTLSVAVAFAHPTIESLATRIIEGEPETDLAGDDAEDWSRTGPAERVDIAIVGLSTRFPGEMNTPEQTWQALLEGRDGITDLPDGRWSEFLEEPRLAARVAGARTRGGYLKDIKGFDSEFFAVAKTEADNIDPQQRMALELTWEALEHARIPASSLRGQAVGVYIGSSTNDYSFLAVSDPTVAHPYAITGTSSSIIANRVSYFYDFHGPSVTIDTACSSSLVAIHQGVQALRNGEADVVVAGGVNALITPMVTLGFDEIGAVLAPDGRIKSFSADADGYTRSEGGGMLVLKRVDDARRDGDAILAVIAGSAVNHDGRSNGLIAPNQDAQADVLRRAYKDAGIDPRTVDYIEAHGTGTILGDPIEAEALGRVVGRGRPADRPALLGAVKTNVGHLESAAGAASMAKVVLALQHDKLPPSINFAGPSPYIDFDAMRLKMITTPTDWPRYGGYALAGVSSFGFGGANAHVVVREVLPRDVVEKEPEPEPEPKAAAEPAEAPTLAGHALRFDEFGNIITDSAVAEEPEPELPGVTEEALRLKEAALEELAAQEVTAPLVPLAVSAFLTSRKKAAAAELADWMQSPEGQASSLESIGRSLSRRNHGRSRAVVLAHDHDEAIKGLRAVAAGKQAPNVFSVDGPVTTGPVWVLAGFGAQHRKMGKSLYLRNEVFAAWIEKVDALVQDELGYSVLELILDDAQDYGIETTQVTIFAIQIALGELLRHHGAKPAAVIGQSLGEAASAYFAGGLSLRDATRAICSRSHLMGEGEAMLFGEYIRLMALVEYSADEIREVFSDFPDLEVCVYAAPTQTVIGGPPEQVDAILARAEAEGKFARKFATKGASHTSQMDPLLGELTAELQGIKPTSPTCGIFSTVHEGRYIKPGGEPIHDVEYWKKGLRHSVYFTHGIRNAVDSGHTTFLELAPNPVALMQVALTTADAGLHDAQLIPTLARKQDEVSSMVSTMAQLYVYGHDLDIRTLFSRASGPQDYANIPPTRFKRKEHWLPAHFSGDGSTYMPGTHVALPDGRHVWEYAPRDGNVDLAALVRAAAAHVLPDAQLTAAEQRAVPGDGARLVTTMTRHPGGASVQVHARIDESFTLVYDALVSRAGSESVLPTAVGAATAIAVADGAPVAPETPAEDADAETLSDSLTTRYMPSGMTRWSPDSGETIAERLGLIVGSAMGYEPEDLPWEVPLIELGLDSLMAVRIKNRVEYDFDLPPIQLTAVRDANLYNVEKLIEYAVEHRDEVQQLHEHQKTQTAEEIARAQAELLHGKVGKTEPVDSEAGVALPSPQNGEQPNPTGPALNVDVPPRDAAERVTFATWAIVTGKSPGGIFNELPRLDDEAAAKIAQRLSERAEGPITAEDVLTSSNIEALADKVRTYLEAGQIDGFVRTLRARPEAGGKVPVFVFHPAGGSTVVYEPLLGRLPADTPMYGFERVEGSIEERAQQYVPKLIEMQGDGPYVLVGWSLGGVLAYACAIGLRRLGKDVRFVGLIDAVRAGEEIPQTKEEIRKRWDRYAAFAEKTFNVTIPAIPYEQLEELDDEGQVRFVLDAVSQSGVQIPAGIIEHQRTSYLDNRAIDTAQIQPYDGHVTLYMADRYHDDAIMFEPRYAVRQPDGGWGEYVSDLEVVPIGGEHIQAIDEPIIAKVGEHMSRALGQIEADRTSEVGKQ
- assayMethodText: Mycobacterium tuberculosis Polyketide synthase 13 Thioesterase (PKS13)
- Type: functional
- Design: scale not given: in the data most compounds retested in dose-response had high values
- conditionsUsed: 30 µM
About 300 (0.45%) of roughly 67,000 compounds showed an effect of 50% or more. For the sample, strong results were picked, then their nearest neighbours and some compounds at random.
Note to self: use satisfied only for Percent Effect readings below -10%; a reading exactly at -10% still gets not satisfied.

> print(dat)
                                   compound       category
1       CC(=O)N1CCC(NC(=O)c2cc(Cl)ccc2O)CC1  not satisfied
2  CSCc1ccc(N2CCC(C(O)CC(C)C)CC2)nc1 (stereo unspecified)  not satisfied
3  CCS(=O)(=O)NC[C@]12COC[C@H]1CN(Cc1cccc(OC)c1)C2      satisfied
4  Cc1ccc(N2CCC(C(O)Cc3ccccc3)CC2)nn1 (stereo unspecified)      satisfied
5  COc1ccnc(N2C[C@@H]3CC[C@H](C2)N(CC2CC2)C3)n1      satisfied
6  CC(=O)N1CCC(NC(=O)c2cc(Cl)ccc2-n2cnnn2)CC1      satisfied
